measurement.target: T1, human Trop-2 on the surface of cells (CHO/Trop-2 cells; BxPC-3 cells; NCI-N87 cells) (human, UniProt P09758 27-323)
T1 sequence (looked up): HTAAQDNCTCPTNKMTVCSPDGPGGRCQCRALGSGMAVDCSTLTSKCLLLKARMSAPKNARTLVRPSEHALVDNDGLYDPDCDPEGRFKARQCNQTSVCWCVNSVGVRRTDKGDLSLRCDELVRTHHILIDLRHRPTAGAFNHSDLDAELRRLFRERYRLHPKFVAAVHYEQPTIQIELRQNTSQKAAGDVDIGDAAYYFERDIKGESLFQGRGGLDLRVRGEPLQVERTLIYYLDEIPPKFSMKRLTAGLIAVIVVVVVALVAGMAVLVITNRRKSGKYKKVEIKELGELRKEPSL
protocol.text: cell-based or functional assay
readout.label: Internalization percentage, 1 h, NCI-N87 cells, FACS
Respond with a number, then the unit of measure.

Take a look at these entries with their results.
h23-12-25 (antibody, human IgG1, kappa, V domains shown, also called h32-12) VH: QVQLVQSGAEVKKPGASVKVSCKASGYTFTSYWMHWVRQAPGQGLEWMGEITPSDNYGSYNQKFKGRVTITRDTSTSTAYMELSSLRSEDTAVYYCARGHGNYVSFDYWGQGTLVTVSS VL: DIQMTQSPSSLSASVGDRVTITCRASQDISNYLNWYQQKPGKAPKLLIYYTSRLESGVPSRFSGSGSGTDFTLTISSLQPEDFATYFCQQGYTLPPYTFGQGTKLEIKR : 54%
h23-12-SN38 (antibody, human IgG1, kappa, V domains shown, CL2A-SN-38 conjugated to the DTT-reduced antibody; 7.5 SN38 per antibody; sites not stated, also called h23-12 labeled with SN38) VH: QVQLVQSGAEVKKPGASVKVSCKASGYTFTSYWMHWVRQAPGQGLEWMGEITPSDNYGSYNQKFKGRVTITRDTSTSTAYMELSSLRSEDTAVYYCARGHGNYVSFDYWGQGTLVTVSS VL: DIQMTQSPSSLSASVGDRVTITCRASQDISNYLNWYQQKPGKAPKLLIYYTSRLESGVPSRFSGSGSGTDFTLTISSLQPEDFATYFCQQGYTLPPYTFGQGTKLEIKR : 51.1%
ch4-3-SN38 (antibody, V domains shown, CL2A-SN-38 conjugated to the DTT-reduced antibody; 7.5 SN38 per antibody; sites not stated, also called ch4-3 labeled with SN38) VH: QVQLQQSGPELVKPGASVKMSCKASGFTFTDYVIGWVKQRTGQGLEWIGEIYLGSGTIYYTEKFKGKATLTADTSSNTAYMQLSSLTSEDSAVYFCARGSIFPFDYWGQGTTLTVSS VL: QIVLTQSPAIMSASPGEKVTMTCSASSSVSYMYWYQQKPGSSPRLLIYDTSTLASGVPVRFSGSGSGTSYSLTISRMEAEDAATYYCQQWSSYPYTFGGGTKLEIK : 64.6%

Read the next record carefully.
Please give the measured Internalization percentage, 1 h, NCI-N87 cells, FACS for this binder: Sacituzumab-SN38 (antibody, human IgG1, kappa, V domains shown, CL2A-SN-38 conjugated to the DTT-reduced antibody; 7.5 SN38 per antibody; sites not stated, also called Sacituzumab labeled with SN38) VH: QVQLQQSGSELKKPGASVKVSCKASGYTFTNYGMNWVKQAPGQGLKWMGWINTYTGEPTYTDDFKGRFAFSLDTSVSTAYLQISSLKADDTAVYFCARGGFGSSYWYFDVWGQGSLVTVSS VL: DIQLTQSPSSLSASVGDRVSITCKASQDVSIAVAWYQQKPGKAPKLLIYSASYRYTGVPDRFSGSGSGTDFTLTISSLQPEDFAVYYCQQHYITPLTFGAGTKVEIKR
47.5%

The measurements presented in this section are drawn from patent US20240092930A1.
